- Test system: Myzus persicae
- Experimental Details: Myzus persicae - sachet test
- Format: in vivo
- Condition Label: application rate of 6 ppm in nutrient medium; 100% = all animals killed
Measurement Type: efficacy (kill in %)

Cc1cc(NC(=O)c2cccnc2)nn1CCC#N : 100
Cc1cc(NC(=O)c2cccnc2)nn1C(C)C#N (stereo not shown) : 100
Cc1cc(NC(=O)c2cccnc2)nn1C(C)(C)C : 80
Cc1cc(NC(=O)c2cccnc2)nn1CCS(C)(=O)=O : 100
Cc1cc(NC(=O)c2cccnc2)nn1CN1CCCNC1=O : 100
Cc1cc(NC(=O)c2cccnc2)nn1CC(F)F : 100
Cc1noc(Cn2nc(NC(=O)c3cccnc3)cc2C)n1 : 100
Cc1cc(NC(=O)c2cccnc2)nn1Cn1nc(C)n(C)c1=O : 100
Cc1cc(NC(=O)c2cccnc2)nn1Cc1ccc2ccccc2n1 : 100
CCCC(=O)n1nc(NC(=O)c2cccnc2)cc1C : 100
